Assayed system: PDE11A (Homo sapiens)
Construct: full-length, Sf9 cell-free extract
Sequence (Q9HCR9 whole entry): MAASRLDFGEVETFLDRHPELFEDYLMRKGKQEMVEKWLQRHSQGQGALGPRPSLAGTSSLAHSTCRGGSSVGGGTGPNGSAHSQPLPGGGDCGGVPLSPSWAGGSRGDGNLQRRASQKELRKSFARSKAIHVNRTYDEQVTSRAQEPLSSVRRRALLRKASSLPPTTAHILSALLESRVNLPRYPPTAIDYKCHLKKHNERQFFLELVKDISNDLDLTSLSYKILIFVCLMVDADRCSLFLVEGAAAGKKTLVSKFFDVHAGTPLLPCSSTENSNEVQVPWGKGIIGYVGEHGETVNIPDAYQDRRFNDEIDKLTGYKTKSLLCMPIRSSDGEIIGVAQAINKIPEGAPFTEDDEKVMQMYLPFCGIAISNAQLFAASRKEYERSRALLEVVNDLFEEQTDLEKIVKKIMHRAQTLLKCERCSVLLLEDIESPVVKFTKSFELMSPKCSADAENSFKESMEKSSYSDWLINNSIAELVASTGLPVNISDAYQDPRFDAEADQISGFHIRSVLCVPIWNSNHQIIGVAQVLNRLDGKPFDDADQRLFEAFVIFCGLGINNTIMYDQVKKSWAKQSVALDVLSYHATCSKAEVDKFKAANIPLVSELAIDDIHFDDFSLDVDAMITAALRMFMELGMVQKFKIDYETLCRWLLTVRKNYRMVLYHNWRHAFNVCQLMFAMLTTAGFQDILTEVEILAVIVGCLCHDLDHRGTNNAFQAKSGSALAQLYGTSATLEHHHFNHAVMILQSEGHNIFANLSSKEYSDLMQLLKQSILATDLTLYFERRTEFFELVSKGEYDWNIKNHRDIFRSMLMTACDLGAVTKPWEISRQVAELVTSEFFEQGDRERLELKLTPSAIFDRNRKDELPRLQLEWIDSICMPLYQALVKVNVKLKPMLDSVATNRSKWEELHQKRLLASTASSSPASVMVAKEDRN
Assay comment: biochemical
Design: PDE enzyme inhibition, 3H-cAMP / 3H-cGMP scintillation proximity assay
Protocol: PDE activity assays were performed as previously described. Briefly, cell-free extracts were prepared from Sf9 insect cells recombinantly expressing full-length human PDEs (PDE2A, 3A, 3B, 4B, 7B, 8A, 9A, 10A, 11A). […]
Assay metric: IC50 (µM)
Write the value in µM as a bare number.

IN: What does the record list as IC50 for COc1cc2c(cc1OC)-c1c/c(=N\c3c(C)cc(C)cc3C)n(C)c(=O)n1CC2 ?
OUT: 1

* * *

Assayed system: PDE2A (Homo sapiens, UniProt O00408)
Sequence (O00408 whole entry): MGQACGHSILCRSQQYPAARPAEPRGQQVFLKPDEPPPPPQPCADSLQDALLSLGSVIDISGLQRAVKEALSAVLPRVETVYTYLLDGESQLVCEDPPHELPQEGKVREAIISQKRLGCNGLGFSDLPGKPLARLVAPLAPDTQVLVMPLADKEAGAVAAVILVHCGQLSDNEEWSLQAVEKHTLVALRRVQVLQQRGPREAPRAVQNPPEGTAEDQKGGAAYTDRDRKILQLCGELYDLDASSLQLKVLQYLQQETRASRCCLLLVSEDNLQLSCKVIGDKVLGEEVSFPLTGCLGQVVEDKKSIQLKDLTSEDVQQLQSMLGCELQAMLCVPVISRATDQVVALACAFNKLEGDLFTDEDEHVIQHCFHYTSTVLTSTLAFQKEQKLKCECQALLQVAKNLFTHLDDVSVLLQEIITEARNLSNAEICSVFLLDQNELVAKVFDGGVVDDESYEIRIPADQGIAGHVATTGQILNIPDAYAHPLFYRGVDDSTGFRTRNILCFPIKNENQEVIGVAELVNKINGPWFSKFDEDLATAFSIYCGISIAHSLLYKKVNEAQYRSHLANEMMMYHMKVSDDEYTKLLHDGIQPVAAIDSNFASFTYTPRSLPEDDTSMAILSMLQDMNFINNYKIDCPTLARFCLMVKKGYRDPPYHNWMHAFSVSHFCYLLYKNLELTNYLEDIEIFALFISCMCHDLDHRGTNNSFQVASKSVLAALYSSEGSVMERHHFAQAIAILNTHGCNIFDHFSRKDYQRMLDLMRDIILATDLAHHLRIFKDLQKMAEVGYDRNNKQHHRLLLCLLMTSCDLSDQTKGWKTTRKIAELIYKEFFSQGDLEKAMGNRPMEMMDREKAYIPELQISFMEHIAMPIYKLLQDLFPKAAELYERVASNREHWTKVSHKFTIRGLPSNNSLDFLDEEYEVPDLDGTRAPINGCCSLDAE
Assay metric: pIC50
Lab note: report pIC50 as minus log10 of the concentration in molar units, number only.

IN: Reported pIC50 for PDE2A (Homo sapiens, UniProt O00408), given COc1cc2c(cc1OC)-c1c/c(=N\c3c(C)cc(C)cc3C)n(C)c(=O)n1CC2 [trequinsin] ?
OUT: 6.11

* * *

Assayed system: PDE6 (Bos taurus, UniProt P11541+P23439)
Construct: gene PDE6A; native, purified from rod outer segments of bovine retinae
Sequence (P11541 whole entry): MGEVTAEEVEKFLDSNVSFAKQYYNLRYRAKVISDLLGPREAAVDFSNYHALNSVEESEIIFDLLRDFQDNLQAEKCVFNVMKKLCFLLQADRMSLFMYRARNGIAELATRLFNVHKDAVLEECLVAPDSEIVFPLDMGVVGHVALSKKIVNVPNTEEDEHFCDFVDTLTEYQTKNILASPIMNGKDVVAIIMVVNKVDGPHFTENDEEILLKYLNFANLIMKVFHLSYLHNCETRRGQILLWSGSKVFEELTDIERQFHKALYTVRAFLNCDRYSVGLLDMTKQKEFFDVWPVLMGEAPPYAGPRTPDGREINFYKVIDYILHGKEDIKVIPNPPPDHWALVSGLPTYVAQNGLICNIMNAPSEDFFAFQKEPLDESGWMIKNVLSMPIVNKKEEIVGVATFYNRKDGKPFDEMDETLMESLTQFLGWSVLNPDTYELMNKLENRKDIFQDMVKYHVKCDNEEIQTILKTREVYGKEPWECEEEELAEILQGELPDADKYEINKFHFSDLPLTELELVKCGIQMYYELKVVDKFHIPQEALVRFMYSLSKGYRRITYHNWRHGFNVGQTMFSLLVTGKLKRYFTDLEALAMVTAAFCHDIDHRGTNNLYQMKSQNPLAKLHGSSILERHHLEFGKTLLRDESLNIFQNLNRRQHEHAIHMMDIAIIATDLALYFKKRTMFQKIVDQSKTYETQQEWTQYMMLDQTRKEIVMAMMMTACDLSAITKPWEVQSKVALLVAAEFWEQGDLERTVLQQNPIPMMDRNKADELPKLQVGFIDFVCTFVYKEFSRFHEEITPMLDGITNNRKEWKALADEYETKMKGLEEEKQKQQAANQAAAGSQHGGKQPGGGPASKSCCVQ
Sequence (P23439 whole entry): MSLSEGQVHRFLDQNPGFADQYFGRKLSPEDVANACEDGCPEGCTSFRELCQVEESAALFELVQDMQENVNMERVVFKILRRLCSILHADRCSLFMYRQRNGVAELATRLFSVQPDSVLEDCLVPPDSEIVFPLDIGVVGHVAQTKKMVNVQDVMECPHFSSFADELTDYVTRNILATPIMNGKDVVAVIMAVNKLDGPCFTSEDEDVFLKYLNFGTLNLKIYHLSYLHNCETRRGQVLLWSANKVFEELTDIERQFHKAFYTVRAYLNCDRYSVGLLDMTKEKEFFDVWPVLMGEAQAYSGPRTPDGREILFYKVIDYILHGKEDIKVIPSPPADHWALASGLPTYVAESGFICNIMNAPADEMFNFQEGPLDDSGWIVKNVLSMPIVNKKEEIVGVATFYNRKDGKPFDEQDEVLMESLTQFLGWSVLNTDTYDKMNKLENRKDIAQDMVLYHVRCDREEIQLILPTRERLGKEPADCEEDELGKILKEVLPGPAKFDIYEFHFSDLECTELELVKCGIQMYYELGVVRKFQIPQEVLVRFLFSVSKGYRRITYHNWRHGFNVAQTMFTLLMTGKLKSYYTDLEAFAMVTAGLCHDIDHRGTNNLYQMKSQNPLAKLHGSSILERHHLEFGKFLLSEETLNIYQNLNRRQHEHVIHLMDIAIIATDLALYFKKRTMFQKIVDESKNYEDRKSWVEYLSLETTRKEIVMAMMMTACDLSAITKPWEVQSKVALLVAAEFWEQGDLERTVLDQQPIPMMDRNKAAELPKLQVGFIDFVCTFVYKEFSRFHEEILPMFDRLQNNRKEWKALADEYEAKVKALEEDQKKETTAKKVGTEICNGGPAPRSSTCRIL
Assay comment: biochemical
Design: PDE enzyme inhibition, 3H-cAMP / 3H-cGMP scintillation proximity assay
Assay metric: pIC50
Just the number, please; pIC50 means minus log10 of the concentration in mol/L.

IN: # input compound: COc1cc2c(cc1OC)-c1c/c(=N\c3c(C)cc(C)cc3C)n(C)c(=O)n1CC2 ; wanted: its pIC50
OUT: 5.92

* * *

Assayed system: PDE3A (Homo sapiens)
Sequence (Q14432 whole entry): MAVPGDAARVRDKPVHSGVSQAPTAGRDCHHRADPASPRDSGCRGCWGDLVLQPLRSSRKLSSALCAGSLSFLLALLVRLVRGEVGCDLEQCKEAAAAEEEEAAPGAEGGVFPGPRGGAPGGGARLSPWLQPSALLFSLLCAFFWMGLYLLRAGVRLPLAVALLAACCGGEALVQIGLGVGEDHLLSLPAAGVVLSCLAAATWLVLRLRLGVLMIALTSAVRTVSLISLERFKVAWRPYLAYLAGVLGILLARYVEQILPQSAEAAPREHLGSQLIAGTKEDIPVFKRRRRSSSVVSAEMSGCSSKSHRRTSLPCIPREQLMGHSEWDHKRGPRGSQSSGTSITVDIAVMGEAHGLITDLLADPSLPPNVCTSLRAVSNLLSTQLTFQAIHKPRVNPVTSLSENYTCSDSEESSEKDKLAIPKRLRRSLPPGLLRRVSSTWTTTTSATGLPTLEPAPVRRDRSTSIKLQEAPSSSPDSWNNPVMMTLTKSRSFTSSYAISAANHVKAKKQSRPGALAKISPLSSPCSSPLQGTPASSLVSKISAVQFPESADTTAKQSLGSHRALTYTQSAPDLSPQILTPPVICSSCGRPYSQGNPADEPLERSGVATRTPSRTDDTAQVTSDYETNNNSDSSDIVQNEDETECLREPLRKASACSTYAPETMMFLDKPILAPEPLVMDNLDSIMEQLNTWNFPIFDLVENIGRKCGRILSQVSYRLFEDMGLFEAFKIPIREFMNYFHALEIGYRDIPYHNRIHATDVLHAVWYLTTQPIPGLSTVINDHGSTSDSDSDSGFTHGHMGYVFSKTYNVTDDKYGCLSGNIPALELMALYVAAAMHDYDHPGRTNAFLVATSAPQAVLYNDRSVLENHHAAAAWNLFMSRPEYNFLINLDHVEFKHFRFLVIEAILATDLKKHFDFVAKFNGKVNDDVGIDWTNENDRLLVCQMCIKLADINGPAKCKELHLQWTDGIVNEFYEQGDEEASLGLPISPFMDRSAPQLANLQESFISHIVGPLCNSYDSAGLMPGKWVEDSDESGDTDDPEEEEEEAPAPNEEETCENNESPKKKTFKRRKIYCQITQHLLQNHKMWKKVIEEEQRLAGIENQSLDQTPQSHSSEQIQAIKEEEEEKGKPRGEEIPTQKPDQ
Assay metric: IC50 (nM)
// return numeric value only (unit: nM, not printed)

IN: Item COc1cc2c(cc1OC)-c1c/c(=N\c3c(C)cc(C)cc3C)n(C)c(=O)n1CC2 [trequinsin] has what recorded IC50?
OUT: 0.023

Source of measurements: paper PMC8285493
